- measured on: 1-deoxy-D-xylulose-5-phosphate synthase (Escherichia coli (strain K12), UniProt P77488)
- Sequence (P77488 whole entry): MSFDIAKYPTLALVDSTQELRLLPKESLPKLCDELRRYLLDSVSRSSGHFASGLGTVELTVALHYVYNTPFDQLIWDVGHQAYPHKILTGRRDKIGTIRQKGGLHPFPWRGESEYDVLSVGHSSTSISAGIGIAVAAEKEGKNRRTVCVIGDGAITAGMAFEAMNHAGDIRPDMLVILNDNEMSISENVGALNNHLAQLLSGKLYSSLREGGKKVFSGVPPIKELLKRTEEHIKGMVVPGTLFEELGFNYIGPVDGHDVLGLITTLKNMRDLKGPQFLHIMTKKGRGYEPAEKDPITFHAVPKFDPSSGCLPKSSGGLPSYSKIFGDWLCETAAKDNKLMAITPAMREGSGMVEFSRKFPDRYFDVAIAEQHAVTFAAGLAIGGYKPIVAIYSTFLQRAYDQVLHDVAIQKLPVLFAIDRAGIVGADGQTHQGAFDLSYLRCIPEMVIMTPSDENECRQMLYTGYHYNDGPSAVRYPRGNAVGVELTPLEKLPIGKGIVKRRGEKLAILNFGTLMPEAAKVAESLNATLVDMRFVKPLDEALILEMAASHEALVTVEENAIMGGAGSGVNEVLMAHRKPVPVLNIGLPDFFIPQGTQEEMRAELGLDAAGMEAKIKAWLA
- assay name: DXP Synthase Inhibition Assay
- measurement parameters: pH 8; 37 °C
endpoint: pIC50
Give bare numbers, as −log10 of the molar value.

compound | endpoint | numeric readout
O=Nc1ccccc1 [NOB] | pIC50 | 3.68

// moving on: another record for pIC50
Lab note: need pIC50 with 1-deoxy-D-xylulose-5-phosphate synthase (Escherichia coli (strain K12), UniProt P77488) for entry CN(C)c1ccc(N=O)cc1 [NDMA (Substrate 4)] , please look it up.
3.07
